Source of measurements: patent US20150164794A1

Experiment: Pharmacokinetic study of nanoparticle suspension NS-I-4 in ICR mice
Assay type: in vivo
Conditions: iv; analyte in mouse plasma after NS-I-4 intravenously 30 mg/kg, ICR mice; read-out: Vz
assay_readout: Vd
Answer shape: numeric part, then the unit.

Q) What Vd value was documented for this compound, "CCCCCCCC(=O)Oc1c2ccccc2c(OC(=O)CCCCCCC)c2oc(C(C)=O)cc12" ?
A) 0.067 L/kg

# input for lookup
Q) What Vd value was documented for this compound, CC(=O)c1cc2c(o1)C(=O)c1ccccc1C2=O [2-acetyl-naphtho[2,3-b]furan-4,9-dione] ?
A) 15.6 L/kg

###

Assay: Pharmacokinetic study of nanoparticle suspension NS-I-4 in ICR mice
Type: in vivo
Details: iv; analyte in mouse plasma after NS-I-4 intravenously 30 mg/kg, ICR mice; read-out: Cmax
Entries and their measured Cmax follow.
Expressed in µg/mL, but write only the number.

Q) What Cmax value was documented for this compound, CC(=O)c1cc2c(o1)C(=O)c1ccccc1C2=O [2-acetyl-naphtho[2,3-b]furan-4,9-dione] ?
A) 6.13

# input for lookup
Q) What Cmax value was documented for this compound, "CCCCCCCC(=O)Oc1c2ccccc2c(OC(=O)CCCCCCC)c2oc(C(C)=O)cc12" ?
A) 288
